Origin of values: PubChem BioAssay (NCI)

# Test system: SK-MEL-5 melanoma
# procedure.details: NCI tumour cell line growth inhibition, 48 h; in the data active means GI50 below about 0.43 µM; inactive means the rest
Classes used: YES (active), NO (inactive)

- molecule: "NC1=NC(c2ccc(F)cc2)C2=C(N1)c1ccc3ccccc3c1OCC2 (stereo not drawn)"
  class: "NO"
- molecule: "COc1ccc2c(c1)C(=O)c1c-2n(CCCN2CCOCC2)c(=O)c2cc([N+](=O)[O-])ccc12"
  class: "YES"
- molecule: "C=C(C)[C@@H]1CC[C@]2(C(=O)NCCNCCNCCN)CC[C@]3(C)[C@H](CC[C@@H]4[C@@]5(C)CCC(=O)C(C)(C)[C@@H]5CC[C@]43C)[C@@H]12"
  class: "NO"
- molecule: "O=C(/C=C\\c1ccc2ccccc2n1)c1cc(Cl)ccc1O"
  class: "NO"
- molecule: "CO/N=C(/COc1c(-c2ccccc2)oc2ccccc2c1=O)c1ccc(F)cc1"
  class: "NO"
- molecule: "CCC[CH2][Sn]1([CH2]CCC)[O]C(=O)CN=Cc2ccccc2[O]1"
  class: "NO"
- molecule: "Cc1ccc(F)cc1NC(=O)c1cc(Cl)ccc1Nc1ccccc1"
  class: "NO"
- molecule: "Oc1cc(Cl)ccc1Cc1ccc(Cl)cc1O"
  class: "NO"
- molecule: "COc1ccc2[nH]cc(-c3nc(-c4c[nH]c5ccncc45)cs3)c2c1"
  class: "NO"
- molecule: "COc1ccc(C2=C(c3cc(OC)c(OC)c(OC)c3)C(=O)OC2)cc1OC"
  class: "YES"
- molecule: "COc1cc(/C=C2\\C(=O)Nc3ccccc32)cc(OC)c1OC"
  class: "NO"
- molecule: "N=C(N)c1ccc(-c2ccc(-c3ccc(F)cc3)o2)o1"
  class: "NO"
- molecule: "COc1cc(OC)cc(-c2cncn2-c2ccc(-c3nc4cc(OC)cc(OC)c4s3)cc2)c1"
  class: "NO"
- molecule: "Oc1ccc(CN(Cc2ccc(C(F)(F)F)cc2)Cc2ccc(O)c3ncccc23)c2cccnc12"
  class: "YES"
- molecule: "O=C(Nc1cccc(-n2ccc3c(NC(=O)c4ccccc4)nccc32)c1)c1cc(N2CCOCC2)cc(C(F)(F)F)c1"
  class: "YES"
- molecule: "O=C1OCC2=C1C(c1cccc(C(F)(F)F)c1)c1cc3c(cc1N2CCO)CCC3 (stereo not drawn)"
  class: "YES"
- molecule: "N/C(=N\\c1nc2ccccc2s1)NC(=O)Nc1cccc2ccccc12"
  class: "NO"
- molecule: "C=C1C(=O)O[C@H]2C[C@@H]1CCC1(C)OC1CC/C(C)=C/CC[C@H]2C (stereo partly drawn)"
  class: "NO"
